# Target Or Test System: human MAO-A (Homo sapiens, UniProt P21397)
# Construct: purchased MilliporeSigma (Milan, Italy); host or cells: baculovirus-infected insect cells (BTI-TN-5B1-4)
# Sequence (P21397 whole entry): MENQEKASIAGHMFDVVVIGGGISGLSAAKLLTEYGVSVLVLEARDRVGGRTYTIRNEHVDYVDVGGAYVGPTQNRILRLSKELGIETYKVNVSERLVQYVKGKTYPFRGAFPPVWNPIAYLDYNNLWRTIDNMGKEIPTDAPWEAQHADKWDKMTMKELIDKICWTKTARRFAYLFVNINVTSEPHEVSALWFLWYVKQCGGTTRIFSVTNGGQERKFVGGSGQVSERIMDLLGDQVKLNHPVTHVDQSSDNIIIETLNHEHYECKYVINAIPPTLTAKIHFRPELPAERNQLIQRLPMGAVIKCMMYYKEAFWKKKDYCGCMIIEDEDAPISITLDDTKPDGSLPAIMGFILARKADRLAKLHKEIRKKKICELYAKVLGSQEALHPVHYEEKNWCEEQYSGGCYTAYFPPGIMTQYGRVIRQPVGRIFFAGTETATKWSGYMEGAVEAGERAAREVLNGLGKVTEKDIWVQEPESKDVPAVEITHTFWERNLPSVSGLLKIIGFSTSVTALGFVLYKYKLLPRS
# Assay: MAO-Glo bioluminescent MAO-A inhibition assay
# Assay type: biochemical
# Conditions: Table 1; molarity, standard metabolites; read-out: IC50 Value MAO-A M
Property Name: IC50 (µM)
Dear colleague, please return just the value in µM, with no unit written.

// query IC50 value for entry O=C(O)/C=C/c1ccc(O)c(O)c1 [Caffeic acid, caffeic acid]
2750

====

Reported IC50 values for the following molecules.
# Target Or Test System: human MAO-B (Homo sapiens, UniProt P27338)
# Construct: purchased MilliporeSigma (Milan, Italy); host or cells: baculovirus-infected insect cells (BTI-TN-5B1-4)
# Sequence (P27338 whole entry): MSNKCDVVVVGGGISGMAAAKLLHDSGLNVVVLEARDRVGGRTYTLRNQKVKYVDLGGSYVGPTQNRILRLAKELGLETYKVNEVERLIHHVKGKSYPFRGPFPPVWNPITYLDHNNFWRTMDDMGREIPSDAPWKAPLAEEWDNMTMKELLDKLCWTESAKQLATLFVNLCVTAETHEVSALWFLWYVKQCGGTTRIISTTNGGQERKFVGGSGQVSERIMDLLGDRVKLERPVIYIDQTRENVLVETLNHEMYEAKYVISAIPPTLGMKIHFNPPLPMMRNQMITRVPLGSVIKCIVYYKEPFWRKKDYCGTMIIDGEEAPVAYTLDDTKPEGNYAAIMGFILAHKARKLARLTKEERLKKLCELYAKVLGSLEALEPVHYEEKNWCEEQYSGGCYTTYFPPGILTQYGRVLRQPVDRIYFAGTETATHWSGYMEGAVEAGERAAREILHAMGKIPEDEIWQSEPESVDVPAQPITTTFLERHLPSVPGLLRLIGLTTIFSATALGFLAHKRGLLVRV
# Assay: MAO-Glo bioluminescent MAO-B inhibition assay
# Format: biochemical
# Conditions: Table 1; molarity, standard metabolites; read-out: IC50 Value MAO-B M
Dear colleague, please return just the value in mM, with no unit written.

O=C(O)/C=C/c1ccc(O)c(O)c1    0.439
O=c1ccc2cc(O[C@@H]3O[C@H](CO)[C@@H](O)[C@H](O)[C@H]3O)c(O)cc2o1    12.1

// query IC50 value for entry O=C(O)[C@]1(O)C[C@@H](O)[C@@H](O)[C@H](O)C1 [D-(−)-Quinic acid, D-(−)-quinic acid]
34.4
